target: human recombinant AChE (hAChE) (Homo sapiens, UniProt P22303); assay: biochemical; conditions: mean ± SEM of at least three experiments
Sequence (P22303 32-614): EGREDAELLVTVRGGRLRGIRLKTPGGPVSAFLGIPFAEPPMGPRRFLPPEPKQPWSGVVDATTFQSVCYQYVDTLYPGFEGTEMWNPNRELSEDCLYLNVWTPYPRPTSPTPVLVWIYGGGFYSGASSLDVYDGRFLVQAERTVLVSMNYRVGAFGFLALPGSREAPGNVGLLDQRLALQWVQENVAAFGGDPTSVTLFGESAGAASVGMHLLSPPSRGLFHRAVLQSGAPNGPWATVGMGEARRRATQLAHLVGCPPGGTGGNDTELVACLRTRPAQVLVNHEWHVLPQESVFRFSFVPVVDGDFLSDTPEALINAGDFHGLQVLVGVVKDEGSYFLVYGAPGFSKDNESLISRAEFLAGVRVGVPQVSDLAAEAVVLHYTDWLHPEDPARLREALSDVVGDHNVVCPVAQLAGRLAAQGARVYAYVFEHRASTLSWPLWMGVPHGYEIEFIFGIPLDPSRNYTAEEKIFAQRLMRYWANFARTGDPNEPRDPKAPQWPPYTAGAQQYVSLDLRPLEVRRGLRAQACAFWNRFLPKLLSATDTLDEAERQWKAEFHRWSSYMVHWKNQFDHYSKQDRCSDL
Quick reference: IC50 of the listed items.
METRIC_NAME: IC50 (nM)

[[record]]
compound = "O=S(=O)(c1ccccc1)n1ccc2c(OCCNCCCC3CCN(Cc4ccccc4)CC3)cccc21 [Compound 14]"
quantity_unit = "nM"
readout_number = 930

[[record]]
compound = "O=S(=O)(c1ccccc1)n1ccc2c(OCCNCC3CCN(Cc4ccccc4)CC3)cccc21 [Compound 12]"
quantity_unit = "nM"
readout_number = 3150

[[record]]
compound = "O=S(=O)(c1ccccc1)n1ccc2c(OCCNCCC3CCN(Cc4ccccc4)CC3)cccc21 [Compound 13]"
quantity_unit = "nM"
readout_number = 2260

[[record]]
compound = "O=c1[nH]c2c(OCCNCCC3CCN(Cc4ccccc4)CC3)cccc2n1Cc1ccccc1 [Compound 18]"
quantity_unit = "nM"
readout_number = 2860

[[record]]
compound = "O=c1[nH]c2c(OCCNCCCC3CCN(Cc4ccccc4)CC3)cccc2n1Cc1ccccc1 [Compound 19]"
quantity_unit = "nM"
readout_number = 544

[[record]]
compound = "O=S(=O)(c1ccccc1)N1CCc2c(OCCNCCCC3CCN(Cc4ccccc4)CC3)cccc21 [Compound 16]"
quantity_unit = "nM"
readout_number = 821

[[record]]
compound = "O=S(=O)(c1ccccc1)N1CCc2c(OCCNCC3CCN(Cc4ccccc4)CC3)cccc21 [Compound 15]"
quantity_unit = "nM"
readout_number = 8210


* * *

biological target: human 5-HT6 receptor (Homo sapiens)
Sequence (P50406 whole entry): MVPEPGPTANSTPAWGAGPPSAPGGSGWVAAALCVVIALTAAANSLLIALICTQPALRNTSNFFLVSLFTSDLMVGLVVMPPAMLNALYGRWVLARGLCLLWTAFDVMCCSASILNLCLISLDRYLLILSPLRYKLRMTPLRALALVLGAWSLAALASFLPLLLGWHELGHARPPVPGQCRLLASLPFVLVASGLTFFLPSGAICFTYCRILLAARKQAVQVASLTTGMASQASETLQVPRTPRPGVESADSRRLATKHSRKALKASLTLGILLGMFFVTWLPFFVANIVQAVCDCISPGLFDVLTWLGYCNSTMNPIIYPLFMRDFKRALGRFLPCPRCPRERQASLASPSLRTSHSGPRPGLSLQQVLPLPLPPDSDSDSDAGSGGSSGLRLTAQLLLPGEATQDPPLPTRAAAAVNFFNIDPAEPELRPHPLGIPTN
pKi: −log10 of the molar value.
# if value of pKi reaches 7, tag Yes; if it stays below, tag No

[[record]]
given_smiles = "O=c1[nH]c2c(OCCNCCCC3CCN(Cc4ccccc4)CC3)cccc2n1Cc1ccccc1"
answer_label = "No"

[[record]]
given_smiles = "O=S(=O)(c1ccccc1)N1CCc2c(OCCNCCCC3CCN(Cc4ccccc4)CC3)cccc21"
answer_label = "No"

[[record]]
given_smiles = "O=S(=O)(c1ccccc1)N1CCc2c(OCCNCC3CCN(Cc4ccccc4)CC3)cccc21"
answer_label = "No"

[[record]]
given_smiles = "O=S(=O)(c1ccccc1)n1ccc2c(OCCNCCC3CCN(Cc4ccccc4)CC3)cccc21"
answer_label = "Yes"

[[record]]
given_smiles = "O=S(=O)(c1ccccc1)n1ccc2c(OCCNCCCC3CCN(Cc4ccccc4)CC3)cccc21"
answer_label = "Yes"

[[record]]
given_smiles = "O=S(=O)(c1ccccc1)n1ccc2c(OCCNCC3CCN(Cc4ccccc4)CC3)cccc21"
answer_label = "Yes"


* * *

Quick reference: % of ABTS• reduction ± SD of the listed items.
experiment: ABTS free radical scavenging assay; details: 75 µM, 5 min
METRIC_NAME: % of ABTS• reduction ± SD (%)

[[record]]
compound = "O=S(=O)(c1ccccc1)n1ccc2c(OCCNCCCC3CCN(Cc4ccccc4)CC3)cccc21 [Compound 14]"
readout_number = 13

[[record]]
compound = "O=c1[nH]c2c(OCCNCC3CCN(Cc4ccccc4)CC3)cccc2n1Cc1ccccc1 [Compound 17]"
readout_number = 12

[[record]]
compound = "O=S(=O)(c1ccccc1)n1ccc2c(OCCNCC3CCN(Cc4ccccc4)CC3)cccc21 [Compound 12]"
readout_number = 13

[[record]]
compound = "O=S(=O)(c1ccccc1)N1CCc2c(OCCNCCCC3CCN(Cc4ccccc4)CC3)cccc21 [Compound 16]"
readout_number = 7

[[record]]
compound = "O=S(=O)(c1ccccc1)n1ccc2c(OCCNCCC3CCN(Cc4ccccc4)CC3)cccc21 [Compound 13]"
readout_number = 9

[[record]]
compound = "O=S(=O)(c1ccccc1)N1CCc2c(OCCNCC3CCN(Cc4ccccc4)CC3)cccc21 [Compound 15]"
readout_number = 11

[[record]]
compound = "O=c1[nH]c2c(OCCNCCCC3CCN(Cc4ccccc4)CC3)cccc2n1Cc1ccccc1 [Compound 19]"
readout_number = 14

[[record]]
compound = "Cc1c(C)c2c(c(C)c1O)CCC(C)(C(=O)O)O2 (stereo not drawn) [Trolox, reference compound]"
readout_number = 100

[[record]]
compound = "O=c1[nH]c2c(OCCNCCC3CCN(Cc4ccccc4)CC3)cccc2n1Cc1ccccc1 [Compound 18]"
readout_number = 11


Cited source: paper PMC9409043
